system: LXFL 529 NSCLC; assay: NCI tumour cell line growth inhibition, 48 h
metric_name: TGI

{"compound": "CC(C)C1=Cc2ccc3c(c2C(=O)C1=O)CCCC3", "observed_value": "2.52 µM"}
{"compound": "C=CCCn1nc(-c2ccccc2)oc1=O", "observed_value": "> 100 µM"}
{"compound": "NC1=NN(c2ccccc2)C(=O)C1C(=O)C(=O)Nc1ccccc1 (stereo unspecified)", "observed_value": "> 100 µM"}
{"compound": "C=C(CN(C)C)C(=O)c1ccccc1OC", "observed_value": "11.5 µM"}
{"compound": "CCOC(=O)c1c(CN2CCNCC2)nc2ccc(Cl)cc2c1-c1ccccc1", "observed_value": "3.2 µM"}
{"compound": "CC(=O)NC(CCCCNCc1ccccc1)C(=O)NCc1ccccc1 (stereo unspecified)", "observed_value": "> 100 µM"}
{"compound": "CC(=O)NC(CCCNC(=O)N(C)N=O)C(=O)NCc1ccccc1 (stereo unspecified)", "observed_value": "> 100 µM"}
{"compound": "COc1cc([C@@H]2c3cc4c(cc3[C@@H](NCc3ccccc3F)C3COC(=O)[C@@H]32)OCO4)cc(OC)c1O (stereo partly specified)", "observed_value": "88.2 µM"}
{"compound": "O=C1CCCc2ccc([N+](=O)[O-])c(O)c21", "observed_value": "> 100 µM"}
{"compound": "N#CC(Sc1ccccc1)C(N)=O (stereo unspecified)", "observed_value": "> 100 µM"}
{"compound": "COC(=O)/C=C1\\CCC2[C@@H](C(=O)CC3[C@]2(C)CCC[C@@]3(C)C(=O)OC)C1C (stereo partly specified)", "observed_value": "23.7 µM"}

----------
tested on: OVCAR-4 ovarian; assay: NCI tumour cell line growth inhibition, 48 h
# Lookup of reported TGI keyed by entry

{"compound": "Nc1nc(-c2cccnc2)cc(-c2cc(-c3cccnc3)nc(N)n2)n1", "TGI": "> 100 µM"}
{"compound": "COc1ccc(-c2cnc(-c3ccc(OC)cc3)n2-c2cc(OC)c(OC)c(OC)c2)cc1", "TGI": "58.3 µM"}
{"compound": "CC(=O)C1C(=O)C(=O)N(c2ccc([N+](=O)[O-])cc2[N+](=O)[O-])C1=O (stereo not given)", "TGI": "> 100 µM"}
{"compound": "COc1cc2c3c(n(CCCN=[N+]=[N-])c(=O)c2cc1OC)-c1ccc(F)cc1C3=O", "TGI": "> 100 µM"}
{"compound": "N#Cc1ccc(C2ON=C(c3ccccc3)N2C23CC4CC(CC(C4)C2)C3)cc1 (stereo not given)", "TGI": "> 10 µM"}
{"compound": "CC(=O)NC1=NC(=O)/C(=C/c2ccccc2Cl)N1C", "TGI": "> 100 µM"}
{"compound": "S=C(NCCc1ccccn1)N/N=C(\\c1ccccc1)c1ccccn1", "TGI": "54.7 µM"}
{"compound": "COc1ccc(C2c3ccc4ccccc4c3Oc3ncn(CCCn4ccnc4)c(=N)c32)cc1OC (stereo not given)", "TGI": "26.4 µM"}
{"compound": "CCOC(=O)Cc1csc(NC(=O)C(OC(=O)c2ccc(Cl)cc2)c2ccccc2)n1 (stereo not given)", "TGI": "> 100 µM"}
{"compound": "CCCC(=O)OCC1OC(n2cc(F)c(=O)[nH]c2=O)C(F)C1O (stereo not given)", "TGI": "> 100 µM"}
